- Assay: Morpholine test: depression of the partial vapour pressure of morpholine beyond Raoult's Law
- Condition context: morpholine 0.25 g + material 1 g, 37° C., 30 minutes, headspace GC
Result type: RVR (Raoult variance ratio)

CC(=O)OC1CCCCC1C(C)(C)C (stereo not shown) [o-t-Butylcyclohexyl acetate] :: 1.08
CC(=O)c1ccc2ccccc2c1 :: 0.96
CCCCCCCC1CCCC1=O (stereo not shown) :: 1.05
CC1(C)CCCC2(C)C1CCC1(C)OCCC12 (stereo not shown) :: 1.30
CCCCCCC(CCOC(C)=O)OC(C)=O (stereo not shown) [Nonanediol-1,3-diacetate] :: 1.17
CC(=O)OC1CCC(C(C)(C)C)CC1 (stereo not shown) [p-t-Butylcyclohexyl acetate] :: 0.98
C/C=C\c1ccc(O)c(OC)c1 :: 1.48
O=C(OCc1ccccc1)c1ccccc1O [Benzyl salicylate] :: 1.58

I'd like to know its RVR (Raoult variance ratio). The molecule in question is `Cc1ccc(C(C)C)cc1O`
1.43

# RVR (Raoult variance ratio) lookup, item `CCOc1cc(C=O)ccc1O`
1.43

What value of RVR (Raoult variance ratio) has been recorded for this entry: `OCCc1ccccc1`
1.24

Reported RVR (Raoult variance ratio), molecule CC(C)CCOC(=O)c1ccccc1O [iso-Amyl salicylate] : ____
1.24

State the recorded RVR (Raoult variance ratio) for this entry: CCCCCC1CCC(=O)O1 (stereo not shown) [Nonanolide-1:4]
0.87

What RVR (Raoult variance ratio) value was documented for this molecule, `CCC(C)(C)C1CCC(=O)CC1` ?
1.10

Give its RVR (Raoult variance ratio) value. Item: CCOC(=O)c1ccccc1C(=O)OCC [Diethyl phthalate]
1.20

Which RVR (Raoult variance ratio) is listed for `O=c1ccc2ccccc2o1` ?
1.22

* * *

compounds and their reported inhibition at 0.5 % strength
- Assay target: lipoxidase (ECl.12.1.13) (Glycine max)
- Assay: Lipoxidase test: inhibition of oxidation of linoleic acid by lipoxidase
- Assay type: biochemical
- Condition context: pH 9; read-out: LIC (lipoxidase inhibiting capacity)

Cc1ccc(C(C)C)cc1O :: 32%
CCOC(=O)c1ccccc1C(=O)OCC [Diethyl phthalate] :: 79%
CC(=O)c1ccc2ccccc2c1 :: 100%
O=C(OCc1ccccc1)c1ccccc1O [Benzyl salicylate] :: 0%
C/C=C\c1ccc(O)c(OC)c1 :: 100%

Please examine the following record next.
Looking for the measured inhibition at 0.5 % strength of `CCOc1cc(C=O)ccc1O` , can you help?
100%

* * *

The entries below come with measured inhibition values attached.
- Assay target: UniProt:P08170
- Sequence (P08170 1-839): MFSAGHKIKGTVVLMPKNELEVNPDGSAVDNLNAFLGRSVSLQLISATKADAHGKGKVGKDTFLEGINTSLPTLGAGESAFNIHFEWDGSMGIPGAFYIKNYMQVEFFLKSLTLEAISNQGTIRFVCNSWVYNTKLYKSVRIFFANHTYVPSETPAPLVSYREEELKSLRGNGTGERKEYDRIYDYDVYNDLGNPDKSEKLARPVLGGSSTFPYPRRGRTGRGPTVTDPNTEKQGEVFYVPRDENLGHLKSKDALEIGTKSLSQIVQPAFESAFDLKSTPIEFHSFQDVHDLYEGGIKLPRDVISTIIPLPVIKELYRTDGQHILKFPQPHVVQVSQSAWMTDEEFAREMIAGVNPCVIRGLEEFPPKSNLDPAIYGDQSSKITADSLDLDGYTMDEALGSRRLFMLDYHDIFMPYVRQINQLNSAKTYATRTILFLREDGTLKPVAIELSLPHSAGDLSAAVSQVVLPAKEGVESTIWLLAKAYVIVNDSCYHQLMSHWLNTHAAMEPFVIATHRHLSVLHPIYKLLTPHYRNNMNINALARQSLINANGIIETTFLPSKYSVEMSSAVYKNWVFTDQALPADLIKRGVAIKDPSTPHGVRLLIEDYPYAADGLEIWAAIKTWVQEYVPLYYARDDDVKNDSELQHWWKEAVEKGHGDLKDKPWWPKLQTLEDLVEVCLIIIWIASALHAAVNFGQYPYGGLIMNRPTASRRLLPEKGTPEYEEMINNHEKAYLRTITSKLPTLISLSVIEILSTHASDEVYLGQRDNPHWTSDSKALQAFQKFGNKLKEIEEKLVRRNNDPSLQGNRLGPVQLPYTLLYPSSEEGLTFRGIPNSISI
- Assay: Lipoxidase test: inhibition of oxidation of linoleic acid by lipoxidase
- Format: biochemical
- Design: concentration or dose not given beside the values
- Condition context: pH 9; read-out: LIC (lipoxidase inhibiting capacity)
Kindly provide the numeric value in % only, without the unit symbol.

Suppose we examine the molecule CC1COCc2cc3c(cc21)C(C)(C)C(C)C3(C)C (stereo not drawn) ; what inhibition value has been reported?
100

What value of inhibition has been recorded for this entry: CCCCCCC(CCOC(C)=O)OC(C)=O (stereo not drawn) [Nonanediol-1,3-diacetate]
33

Looking for the measured inhibition of OCCc1ccccc1 [Phenylethyl alcohol] , can you help?
22

What value of measured inhibition is listed for CC(C)CCOC(=O)c1ccccc1O [iso-Amyl salicylate] ?
95

What measured inhibition goes with CC1(C)CCCC2(C)C1CCC1(C)OCCC12 (stereo not drawn) ?
58

I am curious: what inhibition value has been reported for CCCCCC1CCC(=O)O1 (stereo not drawn) [Nonanolide-1:4] ?
92

* * *

- Assay target: lipoxidase (ECl.12.1.13) (Glycine max, UniProt P08170)
- Sequence (P08170 1-839): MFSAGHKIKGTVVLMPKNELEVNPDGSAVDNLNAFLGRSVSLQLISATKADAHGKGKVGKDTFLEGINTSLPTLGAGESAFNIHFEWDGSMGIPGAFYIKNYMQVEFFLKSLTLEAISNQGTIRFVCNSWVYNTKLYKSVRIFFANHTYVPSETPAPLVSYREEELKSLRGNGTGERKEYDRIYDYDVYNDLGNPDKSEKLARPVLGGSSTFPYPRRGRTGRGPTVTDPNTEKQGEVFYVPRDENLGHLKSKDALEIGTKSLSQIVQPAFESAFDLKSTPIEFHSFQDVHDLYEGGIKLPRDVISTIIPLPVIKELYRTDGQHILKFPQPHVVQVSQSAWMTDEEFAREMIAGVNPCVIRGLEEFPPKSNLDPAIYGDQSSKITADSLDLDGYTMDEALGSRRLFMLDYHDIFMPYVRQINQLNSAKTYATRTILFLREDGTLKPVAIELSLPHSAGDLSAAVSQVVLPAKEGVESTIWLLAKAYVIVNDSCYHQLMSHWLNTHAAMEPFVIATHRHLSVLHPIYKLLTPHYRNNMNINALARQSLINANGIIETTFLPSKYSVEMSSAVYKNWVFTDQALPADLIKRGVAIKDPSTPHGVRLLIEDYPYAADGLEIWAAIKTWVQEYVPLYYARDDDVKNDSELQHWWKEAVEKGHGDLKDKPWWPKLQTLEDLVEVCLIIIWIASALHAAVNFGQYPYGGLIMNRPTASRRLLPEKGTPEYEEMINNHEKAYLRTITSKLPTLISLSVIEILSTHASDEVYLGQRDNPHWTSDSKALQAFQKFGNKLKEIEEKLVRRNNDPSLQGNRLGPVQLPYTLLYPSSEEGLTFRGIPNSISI
- Assay: Lipoxidase test: inhibition of oxidation of linoleic acid by lipoxidase
- Type: biochemical
- Design: concentration or dose not given beside the values
- Condition context: pH 9; read-out: LIC (lipoxidase inhibiting capacity)
Answer false (0) if inhibition is under 60%, and true (1) if it is 60% or more.

Illustrative cases are given below, each with its answer.
CCCCCCCC1CCCC1=O (stereo not drawn) :: false (0)
CC(=O)OC1CCC(C(C)(C)C)CC1 (stereo not drawn) [p-t-Butylcyclohexyl acetate] :: false (0)

Hi, just wondering whether CC(=O)OC1CCCCC1C(C)(C)C (stereo not drawn) [o-t-Butylcyclohexyl acetate] shows inhibition of 60% or higher.
false (0)

Confirm if inhibition reported for the compound CC(C=O)Cc1ccc(C(C)(C)C)cc1 (stereo not drawn) is 60% or above.
true (1)

Is reported inhibition greater than or equal to 60% here: `O=c1ccc2ccccc2o1`
false (0)

Please tell me: is the compound `CCC(C)(C)C1CCC(=O)CC1` at or over 60% in terms of inhibition?
false (0)
